All values here come from patent US20100310640A1.

- system-tested: T1, HLA-DR DRB1*0301 (human)
- T1 chain 1: not shown
- T1 chain 2: not shown
- test: radiolabeled-peptide inhibition, purified HLA-DR
- applied-conditions: remark: other sources report otherwise
pIC50: −log10 of the molar value.
assay-endpoint: pIC50

A = PESFDGDPASNTAPL [9019.0048]
B = LQGLPREYVNARHCL [9019.0064]
C = CYGLGMEHLREVRAV [9019.0044]
D = GMSYLEDVRLVHRDL [9019.0002]
Form: Sort by [pIC50] Order [ ascending ] Answer with the labels in sequence, matching the requested order. B, A, C, D
